System: PAMPA
MEASUREMENT_SETUP: Papp (x 10^-6 cm/s) – ELSD Detection / [row 9]; ELSD Detection
Criterion: Papp meeting or surpassing 5 ×10⁻⁶ cm/s. Met: TRUE. Not met: FALSE.

Solved cases (5 shown):
>  <MOLECULE>
CCCCC[C@@H]1OC(=O)[C@@H](C)N(C)C(=O)[C@H](CCCCC)OC(=O)[C@@H](C)N(C)C(=O)[C@H](CCCCC)OC(=O)[C@@H](C)N(C)C1=O [Compound C1.3, ent-verticilide B1]

>  <LABEL_VALUE>
FALSE

$$$$
>  <MOLECULE>
CCCCC[C@@H]1OC(=O)[C@@H](C)N(C)C(=O)[C@H](CCCCC)OC(=O)[C@@H](C)N(C)C(=O)[C@H](CCCCC)OC(=O)[C@@H](C)N(C)C(=O)[C@H](CCCCC)OC(=O)[C@@H](C)N(C)C1=O [Compound C1.4, ent-verticilide]

>  <LABEL_VALUE>
FALSE

$$$$
>  <MOLECULE>
CCCCC[C@@H]1OC(=O)[C@@H](C)N(C)C(=O)[C@H](CCCCC)OC(=O)[C@@H](C)N(C)C(=O)[C@H](CCCCC)OC(=O)[C@@H](C)N(C)C(=O)[C@H](CCCCC)OC(=O)[C@@H](C)N(C)C(=O)[C@H](CCCCC)OC(=O)[C@@H](C)N(C)C(=O)[C@H](CCCCC)OC(=O)[C@@H](C)N(C)C1=O [Compound C1.6]

>  <LABEL_VALUE>
FALSE

$$$$
>  <MOLECULE>
CCCCC[C@@H]1OC(=O)[C@@H](C)N(C)C(=O)[C@H](CCCCC)OC(=O)[C@@H](C)N(C)C(=O)[C@H](CCCCC)OC(=O)[C@@H](C)N(C)C(=O)[C@H](CCCCC)OC(=O)[C@@H](C)N(C)C(=O)[C@H](CCCCC)OC(=O)[C@@H](C)N(C)C1=O [Compound C1.5]

>  <LABEL_VALUE>
FALSE

$$$$
>  <MOLECULE>
CCCCC[C@@H]1OC(=O)[C@@H](C)N(C)C1=O [Compound C1.1]

>  <LABEL_VALUE>
TRUE

$$$$

Could you now look at the following molecule, please?
Item CCCCC[C@@H]1OC(=O)[C@@H](C)N(C)C(=O)[C@H](CCCCC)OC(=O)[C@@H](C)N(C)C1=O [Compound C1.2] with Papp of 5 ×10⁻⁶ cm/s or above? TRUE

Recorded values, source paper PMC11995216.
